Target: T1, FOXM1-DBD (human, UniProt Q08050 222-360)
T1 sequence: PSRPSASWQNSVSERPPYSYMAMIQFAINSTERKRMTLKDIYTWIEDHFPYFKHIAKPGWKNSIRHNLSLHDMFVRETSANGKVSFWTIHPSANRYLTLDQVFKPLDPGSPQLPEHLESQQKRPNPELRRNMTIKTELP
Experiment: ITC
EXPERIMENTAL_ENDPOINT: pKd
Answers are plain numbers, as −log10 of the molar value.

ACAAATA site (DNA4, ITC) (dsDNA) DNA 1: TGCAAAATACAAATAAGACT DNA 2: AGTCTTATTTGTATTTTGCA = 5.68

*Q* What value of pKd has been reported for the following binder? GTACACA site (ITC) (dsDNA) DNA 1: TGCAAAATGTACACAAGACT DNA 2: AGTCTTGTGTACATTTTGCA
*A* 5.08
